viability at 28.5 h, 10 µM values, listed per item
- experiment_description: in vitro
- condition: human, hela cells, % viability
Give the value in % but do not write % after it.

Take a look at these entries with their results.
# compound, viability at 28.5 h, 10 µM, %
measured = [
    ("COc1cc(NC(=O)Nc2ccccc2OC)c(OC)cc1Cl [CBK270329]", 95.7),
    ("O=C(O)CCSC1=CCS(=O)(=O)c2ccc(Cl)cc21 [CBK013721]", 114),
    ("COc1ccccc1-c1ccccc1CC1(C(=O)NCc2cccc(F)c2)CCOCC1 [CBK286426]", 96.9),
]

For this compound ( O=C(NC(=S)Nc1cccc(-c2nc3ncccc3o2)c1)c1cc([N+](=O)[O-])ccc1N1CCOCC1 [CBK268756] ), measured viability at 28.5 h, 10 µM is 92.7

Notebook: COC(=O)c1ccc(-c2ccc(Cl)c(Cl)c2)nc1 [CBK149231] , viability at 28.5 h, 10 µM read as 101

Form: compound = O=c1c(N2CCC(Sc3ccccc3)CC2)nccn1Cc1ccc(OC(F)(F)F)cc1 [CBK155257] ; viability at 28.5 h, 10 µM = 94.7

Reported viability at 28.5 h, 10 µM ( O=C(O)C1CCN(C2CC(=O)N(CCc3ccccc3)C2=O)CC1 (centres unmarked) [CBK269100] ) = 97.1

// C=CCn1c(SCCC(=O)O)nc2c1c(=O)n(C)c(=O)n2C [CBK269573] : viability at 28.5 h, 10 µM value = 79.3

Sample CC(O)CN(Cc1ccc(-n2cnc3ccccc32)cc1)Cc1ccc2c(c1)OCO2 (centres unmarked) [CBK286475] ; viability at 28.5 h, 10 µM observed: 101

Looking up c1ccc(CSc2ncnc3c2oc2ccccc23)cc1 [CBK287398] , I found its viability at 28.5 h, 10 µM recorded as 103

###

Recorded viability at 28.5 h, 10 µM by entry
- experiment_description: in vitro
- condition: human, hela cells, % viability

These recorded examples may help you get a feel for the data.
# compound, viability at 28.5 h, 10 µM
measured = [
    ("CC(C)Cn1cnc(S(=O)(=O)N2CCC(Cc3ccccc3)CC2)c1 [CBK306273]", "92.3%"),
    ("Cc1nc(CC(=O)Nc2ccc(N3CCOCC3)cn2)cs1 [CBK305251]", "91%"),
    ("CN1CCN(C(=O)c2ccc(-c3cncc(-c4cc5ccccc5[nH]4)n3)c(F)c2)CC1 [CBK144906]", "92.8%"),
    ("OC(CN1CCC(O)(Cn2cnc3ccccc32)CC1)c1ccc(-c2ccccc2)cc1 (centres unmarked) [CBK286437]", "89%"),
]

Let's switch to this compound now.
Record CN(Cc1ccccc1)c1nccnc1-c1ccc(CO)cc1 [CBK038067] . Reported viability at 28.5 h, 10 µM: 101%

###

Recorded viability at 28.5 h, 10 µM for the following compounds
- experiment_description: in vitro
- condition: human, hela cells, % viability, bulk resorufin, single well
Dear colleague, please return just the value in %, with no unit written.

See these solved cases before continuing.
# compound, recorded_measurement
data = [
    ("COc1cc(/C=C2\\C(=O)NC(=O)N(c3ccc([N+](=O)[O-])cc3)C2=O)cc(Cl)c1OCC(=O)O", 98.3),
    ("COc1ccc(-c2ccc3c(c2)COC2(CCNCC2)O3)cn1", 81),
    ("CC(=O)N1CCC2(CC1)OCc1cc(-c3c(C)noc3C)ccc1O2", 94.4),
    ("Cc1cc(C)cc(N2C(=O)/C(=C/c3ccc(OC(C)C(=O)O)cc3)C(=O)NC2=S)c1 (centres unmarked)", 93.9),
]

O=C(CCC1C(=O)NC(=O)NC1=O)Nc1cccc(-c2nc3ccccc3s2)c1 yielded viability at 28.5 h, 10 µM of 105

###

viability at 28.5 h, 10 µM values, listed per item
- experiment_description: in vitro
- condition: human, hela cells, % viability

Some solved cases for reference:
# compound, viability at 28.5 h, 10 µM
rows = [
    ("NC(=O)c1cccc(-c2nccnc2N2CCN(CCO)CC2)c1", "96.9%"),
    ("CCC(=O)NC1Cc2cccc3c2N(CCC3)C1=O (stereo not drawn)", "113%"),
    ("CSc1nc(C)cc(OCC(=O)Nc2ccc(Cl)cc2)n1", "94.8%"),
]

Kindly note the recorded viability at 28.5 h, 10 µM for CCOC(=O)c1sc2ncccc2c1N , which is 83.9%

# compound COCCN(CCOC)C(=O)COc1c(Cl)cc(C(=O)O)cc1Cl ; its viability at 28.5 h, 10 µM = 92.3%

The recorded viability at 28.5 h, 10 µM for O=C(Nc1ccc2ncccc2c1)c1ccc(F)cc1Cl is 91.1%

Record Cn1cncc1CN(Cc1ccccn1)Cc1ccccc1Cl , field viability at 28.5 h, 10 µM: 105%

Short answer for COCC(=O)NC1CCN(CC2(c3ccccc3F)CCCC2)CC1 : viability at 28.5 h, 10 µM was 114%

###

- experiment_description: in vitro
- condition: human, hela cells, % viability
measurement_label: viability at 28.5 h, 10 µM (%)
# unit: % | format: bare number

# compound, units_text, viability at 28.5 h, 10 µM
rows = [
    ("COc1cc2c(cc1OC)C1(CCN(CCc3c[nH]c4ccccc34)CC1)NC(=O)C2 [CBK039992]", "%", 99.3),
    ("O=C(Nc1cccc(-c2nc3ncccc3o2)c1)c1ccc(Cl)c([N+](=O)[O-])c1 [CBK262845]", "%", 88.8),
    ("Cc1cc(C2CCCCCN2C(=O)c2c(C)noc2C)no1 (stereo not shown) [CBK284845]", "%", 85.1),
    ("O=S(=O)(Nc1ccc(C(O)(C(F)(F)F)C(F)(F)F)cc1)c1ccc(Cl)c(Cl)c1 [CBK062102]", "%", 111),
    ("O=C(NCc1ccccc1)c1cccc(NC(=O)c2cc(-c3ccncc3)nc3ccc(Cl)cc23)c1 [CBK267769]", "%", 117),
    ("O=C(O)c1ccc(S(=O)(=O)N2CCOCC2)cc1 [CBK287201]", "%", 82.2),
]

Reported viability at 28.5 h, 10 µM ( COCCn1cc(C(=O)N2CCN3CCCCC3C2)c2ccccc21 (stereo not shown) [CBK305287] ) = 107

###

- experiment_description: in vitro
- condition: human, hela cells, % viability
measurement_label: viability at 28.5 h, 10 µM (%)
Numbers only here, please. The scale is %.

# compound, units_text, viability at 28.5 h, 10 µM
records = [
    ("Cc1ccc(-c2nnc([C@H]3CCN(C(=O)NCc4ccccc4)C3)o2)cc1", "%", 93),
    ("O=S(=O)(Nc1ccccc1OC(F)(F)F)c1ccc(N2CCNCC2)c2ccccc12 [CBK003933C]", "%", 92.8),
    ("COc1ccccc1CC(=O)N(Cc1nc(-c2cccc(C)c2)no1)C(C)C", "%", 95.7),
    ("Cc1cccc(C2(Cn3cncc3-c3cnn(C)c3)CCOCC2)c1", "%", 79),
    ("CC(=O)N1CCC2(CCCC[C@H]3CNCC[C@@H]3NC(=O)CNC2=O)CC1", "%", 91.7),
]

// recorded viability at 28.5 h, 10 µM for CC(C(=O)N1CCC(c2ccncc2)CC1)c1ccccc1 (centres unmarked) : 99.1

viability at 28.5 h, 10 µM for C[C@H](NC(=O)N1CCN(C(=O)CCCc2c[nH]c3ccccc23)CC1)C(=O)O is 88

Quick note, viability at 28.5 h, 10 µM for CN(C)S(=O)(=O)c1ccc(NC(=O)c2ccc(-c3ccccc3)cc2)cc1 landed at 104

###

- experiment_description: in vitro
- condition: human, hela cells, % viability
Here the recorded viability at 28.5 h, 10 µM is given for each entry.
Record the value in %, omitting the unit from your answer.

Known viability at 28.5 h, 10 µM results, listed for orientation:
# compound, units_text, viability at 28.5 h, 10 µM
rows = [
    ("O=C(Nc1ccc(C(F)(F)F)cc1)C1CCCS1 (stereo not drawn)", "%", 92.5),
    ("Cc1ccc(Oc2nnnn2-c2ccccc2)c(Br)c1", "%", 106),
    ("Nc1nccn(CCOc2cc(F)c(F)cc2F)c1=O [CBK138204T]", "%", 92.6),
    ("COc1cc(/C=N/N=C(/Nc2ccc(C)cc2)c2nc3ccccc3s2)ccc1O", "%", 103),
    ("CC(c1ccncn1)N(C)C(=O)NCc1cccc(CN(C)C)c1 (stereo not drawn)", "%", 89.9),
    ("COc1ccc(C2NC(C(=O)O)CS2)cc1CN1C[C@@H]2C[C@H](C1)c1cccc(=O)n1C2 (stereo partly drawn)", "%", 93.8),
]

Input COC(=O)c1ccsc1NC(=O)CN1CCNCC1 . Output viability at 28.5 h, 10 µM: 88.5

O=C(O)C1C2C=CC(C2)C1C(=O)N1CCN(C(c2ccccc2)c2ccccc2)CC1 (stereo not drawn) has a reported viability at 28.5 h, 10 µM of 95.2

Entry O=C(CSc1ccc2nnc(-c3ccccn3)n2n1)N1CCCCC1 , viability at 28.5 h, 10 µM reported as 101
